system: HEK-293T; test: Incucyte cell viability with HEK293T; format: toxicity, cell-based; conditions: human, 24 h, 10 µM, compound concentration 10 uM, replicate number 1, timepoint 24 hours; also: filed as whole numbers so only -1 and 0 and 1 occur
Below, each entry is listed with its recorded Growth Rate.
Could you keep your reply to the number by itself?

# count of solved cases: 3
CC(C)c1ccc(CC(=O)N2CCC[C@@H](c3cccc(OC(C)(C)C(=O)O)c3)C2)cc1 = 0
CCCCN(CC)c1nc(C)nc2c1c(C)cn2-c1c(C)cc(C)cc1C.Cl = 0
CCN1CCC[C@H]1CNC(=O)c1c(OC)ccc(Br)c1OC [REMOXIPRIDE] = 1

Which Growth Rate reading was recorded for the compound `CCOC(=O)c1ccc(C#Cc2ccc3c(c2)C(C)(C)CCS3)nc1` ?
0

----------
Below, each entry is listed with its recorded Population Fragmented Nuclei (%).
system: HEK-293T; assay: Multiplex assay against HEK293T; type: toxicity, cell-based; settings: human, 48 h, 1 µM, compound concentration 1 uM, replicate 2
# output: bare number, implied unit %

# count of solved cases: 10
CC(/C=C1\SC(=S)N(CCCC(=O)Nc2ccc(C(=O)O)c(O)c2)C1=O)=C\c1ccccc1 = 4
Cl.NC[C@@H]1O[C@H](C23CC4CC(CC(C4)C2)C3)Cc2c1ccc(O)c2O = 5
CC(C)c1cc(Nc2nc(N3CCC[C@H](N)C3)ncc2C(N)=O)cc(C(C)C)n1 = 7
CC(C)[C@H](CO)Nc1nc(Nc2cccc(Cl)c2)c2ncn(C(C)C)c2n1 = 7
Cc1c(P(=S)(c2ccccc2)c2ccccc2)n2ccccc2[n+]1C/C=C/c1ccccc1.[Br-] = 7
N#CCNC(=O)c1ccc(-c2ccnc(Nc3ccc(N4CCOCC4)cc3)n2)cc1 = 13
N#Cc1cccc(C(=O)Nc2cc(-c3ccccc3)nn2-c2ccccc2)c1 = 6
CC(Cc1ccc(O)c(O)c1)C(C)Cc1ccc(O)c(O)c1 (configuration not stated) [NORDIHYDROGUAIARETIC ACID] = 7
C=CC(=O)Nc1cc(-n2c(=O)ccc3cnc4ccc(-c5ccc(NS(C)(=O)=O)cc5)cc4c32)ccc1C = 7
CCCCCNC(=N)N/N=C/c1c[nH]c2ccc(OC)cc12.O=C(O)/C=C\C(=O)O [TEGASEROD MALEATE] = 7

Identify the measured Population Fragmented Nuclei (%) of `C[C@@H](Oc1cc(-n2cnc3ccc(CN4CCN(C)CC4)cc32)sc1C(N)=O)c1ccccc1C(F)(F)F` for HEK-293T.
10

Identify the measured Population Fragmented Nuclei (%) of `Oc1cccc(-c2nc(N3CCOCC3)c3oc4ncccc4c3n2)c1` for HEK-293T.
12

Identify the measured Population Fragmented Nuclei (%) of `CCCc1cc(C)[nH]c(=O)c1CNC(=O)c1cc(-c2ccc(N3CCN(C(C)C)CC3)nc2)cc2c1cnn2C(C)C` for HEK-293T.
6

----------
system: HEK-293T; assay: Multiplex assay against HEK293T; type: toxicity, cell-based; conditions: human, 12 h, 10 µM, compound concentration 10 uM, replicate 1;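 as to Population Tubulin-Different-Phenotype (%): share of the cells with healthy nuclei that show this phenotype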
Below, each entry is listed with its recorded Population Tubulin-Different-Phenotype (%).
# output: bare number, implied unit %

CCCc1cc(C)[nH]c(=O)c1CNC(=O)c1cc(-c2ccc(N3CCN(C(C)C)CC3)nc2)cc2c1cnn2C(C)C = 89
CC(Cc1ccc(O)c(O)c1)C(C)Cc1ccc(O)c(O)c1 (centres undefined) [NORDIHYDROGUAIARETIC ACID] = 2
CCOC(=O)CCNc1cc(N2CCc3ccccc3CC2)nc(-c2ccccn2)n1 = 31
CCCCN(CC)c1nc(C)nc2c1c(C)cn2-c1c(C)cc(C)cc1C.Cl = 75
Cc1ccc(S(=O)(=O)NC2c3ccccc3Oc3ccccc32)cc1 = 74
Cc1c(Nc2ccc(S(=O)(=O)N3CCN(C)CC3)cc2F)nc2ccc(Nc3cnn(C4CC4)c3)cn2c1=O = 4

Identify the measured Population Tubulin-Different-Phenotype (%) of `CC(C)[C@H](CO)Nc1nc(Nc2cccc(Cl)c2)c2ncn(C(C)C)c2n1` for HEK-293T.
98

Identify the measured Population Tubulin-Different-Phenotype (%) of Cl.Cn1c2c(c3ccc(Cl)c(Cl)c31)C(C#N)C1(CCNCC1)NC2=O (centres undefined) for HEK-293T.
76

Identify the measured Population Tubulin-Different-Phenotype (%) of `N#CCNC(=O)c1ccc(-c2ccnc(Nc3ccc(N4CCOCC4)cc3)n2)cc1` for HEK-293T.
62
